These data points were gathered from PubChem BioAssay.

- protocolText: CREB reporter modulators under forskolin, primary screen, cell-based, PC12, CRE-LacZ reporter, forskolin-stimulated (AID 1146);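 also: PC12 cells with 6xCRE LacZ reporter stimulated by forskolin 10 µM; beta-galactosidase reporter signal reflecting CREB driven transcription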
- recordedConditions: luminescence, 4.5 h, higher = more signal, called active from +8 up or from −8 down
Activity calls are given as the source filed them.
resultType: z-score

COCCOC(=O)N1C(=O)[C@@]2(c3cc(C#CCC(C(=O)OC)C(=O)OC)ccc31)[C@H](C(=O)N1CCc3cc(OC)c(OC)cc3C1)[C@H]1C(=O)O[C@H](c3ccccc3)[C@H](c3ccccc3)N1[C@@H]2c1ccc(O)cc1 has a reported z-score of -0.572 (inactive)

[N-]=[N+]=Nc1ccccc1[C@@H]1OC(c2ccc(OCCCO)cc2)=N[C@]1(Cc1ccccc1)C(N)=O has a reported z-score of -1.49 (inactive)

Cc1ccc(S[C@]2(C(=O)NCCN3CCOCC3)CC(=O)N(C3CCCCC3)[C@@H]2c2ccc(CO)cc2I)cc1 has a reported z-score of 0.341 (inactive)

CN(C)CCCC[C@@H]1NC(=O)[C@H]2C[C@@H](C(=O)O)[C@@H](c3cccc(OCCO)c3)N2C1=O has a reported z-score of 0.0684 (inactive)

CC(C)C[C@H]1NC(=O)[C@@]23C(=O)N[C@@H](Cc4ccccc4)C2[C@H](C)[C@@]2(C)O[C@H]2C3/C=C/C/C=C\CNC(=O)[C@@H]2CCCN2C1=O (some centres not stated) has a reported z-score of 0.865 (inactive)

CC(C)[C@@H](C(=O)O)n1cc(-c2ccccc2)nn1 has a reported z-score of 0.0824 (inactive)

CC#CCO[Si](C#CCCCCCC)(C(C)C)C(C)C has a reported z-score of 2.09 (inactive)
